OUTCOME_MEASURE: melting point

compound=COc1cc(C=Cc2ccccc2)c(C#N)c(OC)c1 outcome_measure="melting point" experimental_result="147 to 148 °C"
compound=CC(=O)Nc1ccc(C(=O)NC(=O)N2CCC(Oc3ccc(Cl)cc3)CC2)cc1 outcome_measure="melting point" experimental_result="79 °C"
compound="Cc1nc(OCCCC2CO2)cc(-c2ccc(F)cc2)n1 (configuration not stated)" outcome_measure="melting point" experimental_result="63 to 64 °C"
compound="NC(=O)CC1CN=C(c2cc3cccc(NS(=O)(=O)c4cccs4)c3[nH]2)S1 (configuration not stated)" outcome_measure="melting point" experimental_result="130 to 131 °C"
compound=N#CC=C1CCN(c2ccc(N3C[C@H](CNC(=O)CBr)OC3=O)cc2F)CC1 outcome_measure="melting point" experimental_result="160 to 162 °C"

Give the measured melting point for CC(C(N)=O)c1ccc2c(c1)Oc1ncccc1CC2=O (configuration not stated)
89 to 90 °C

Give the measured melting point for C[C@@H]1[C@H]2C(=O)N(Cc3ccccc3)C(=O)[C@H]2[C@@H](c2ccc(Br)cc2)N1C (racemic)
166 to 168 °C

----------
OUTCOME_MEASURE: melting point

Give the measured melting point for Nc1c(F)cc(-c2ccccc2)cc1Cl
105 to 107 °C

----------
Reported melting point is given for each of the following compounds.

Below: 8 compounds and their reported melting point.
compound=Cn1c(C(F)(F)F)cc(=O)n(-c2ccc3snc(CC(=O)O)c3c2)c1=O experimental_result="240 to 242 °C"
compound=COc1ccc(C=O)c(OC)c1I experimental_result="103 °C"
compound=Cc1cc(-c2cccc(-c3ccc(OCC(=O)O)c4c3CCCC4)n2)c(C)[nH]1 experimental_result="199 to 206 °C"
compound="O=C(NCCOc1ccc(CC(Oc2ccc(F)c(F)c2)C(=O)O)cc1)c1ccc(-c2ccccn2)cc1 (centres undefined)" experimental_result="135 to 136 °C"
compound=Cc1cn(C)cc(-c2cccc(Cl)c2)c1=O experimental_result="143 to 144 °C"
compound=CCCCN(CCCC)CCCOc1ccc(S(=O)(=O)c2c(-c3ccccc3)noc2C(C)C)cc1 experimental_result="53.5 °C"
compound="CC(=O)N1CCC(COC2c3ccccc3C(=O)N2c2ccc3ccc(Cl)nc3n2)CC1 (centres undefined)" experimental_result="160 °C"
compound=COCCOc1ccc(CCCO)c(Oc2ncc(C(F)(F)F)cc2Cl)c1 experimental_result="70 to 71 °C"

Give the measured melting point for COc1ccccc1-c1cccc(C#N)c1
58 °C

Give the measured melting point for Cc1cc(C)cc(NC(=O)NCc2ccc3c(c2)CN(C2CCC(=O)NC2=O)C3=O)c1 (centres undefined)
289 to 291 °C

----------
Reported melting point is given for each of the following compounds.

Below: 5 compounds and their reported melting point.
compound=C=CCOc1cc([N+](=O)[O-])ccc1OC outcome_measure="melting point" experimental_result="93 to 94 °C"
compound="CC(F)c1nc2ncnn2c(NC2CCC(C(C)(C)C)CC2)c1Cl (centres undefined)" outcome_measure="melting point" experimental_result="138 to 139 °C"
compound=NS(=O)(=O)c1ccccc1-c1ccno1 outcome_measure="melting point" experimental_result="132 to 135 °C"
compound=CCc1ccccc1C=C1CCN2Cc3ccccc3N=C12 outcome_measure="melting point" experimental_result="224 to 225 °C"
compound=CC=C(Cc1ccccc1)NNC(=O)OC(C)(C)C outcome_measure="melting point" experimental_result="76 to 79 °C"

Give the measured melting point for CCCSc1nccn2c(=O)c(C(=O)OCC)cnc12
112 °C

Give the measured melting point for Cc1cc(C(O)CN2CCC(O)(c3cccc(F)c3)CC2)c(C)cc1O (centres undefined)
193 °C

Give the measured melting point for COc1ccc(-c2nc(S(=O)(=O)CC(F)(F)F)[nH]c2-c2ccc(OC)cc2)cc1
173 to 174 °C

Give the measured melting point for COC(=O)c1cccc2oc(SCCCN3CCN(CC(=O)Nc4c(C(C)C)cccc4C(C)C)CC3)nc12
132 to 133 °C
